tested on: SNB-75 CNS; experiment: NCI-60 one-dose screen, 48 h (100 = growth as untreated, 0 = no growth, -100 = all killed); details: 10 µM unless noted
The panel holds about 83,000 compounds, 20% with a hit somewhere; the sample as a whole holds those more often.
Measured growth values are reported for all entries that follow.
Give just the numeric value; % need not be written.

Known results for molecules:
- MOLECULE: "N#CCSc1nnc2n(Cc3ccccc3)c(=O)c3c4c(sc3n12)CCCC4"
  MEASURED_ATTRIBUTE: "growth"
  ENDPOINT_UNIT: "%"
  READING: 91.1
- MOLECULE: "O=C(OCc1ccc2c(Cl)cc(Cl)c(O)c2n1)n1cncn1"
  MEASURED_ATTRIBUTE: "growth"
  ENDPOINT_UNIT: "%"
  READING: 44.9
- MOLECULE: "CC1=Nc2cnc(Nc3ccc(OCCN4CCCC4)cc3)nc2Nc2ccccc21"
  MEASURED_ATTRIBUTE: "growth"
  ENDPOINT_UNIT: "%"
  READING: 20.1

Incoming: Recorded growth for O=S(=O)(Nc1ccccc1)c1ccc(C2CC3(Cl)C(Cl)=C(Cl)C2(Cl)C3(Cl)Cl)cc1 (configuration not stated) , please?
Outgoing: 69.6

Incoming: Value lookup for growth; key = CC1=NN(c2nc(SCC(=O)Nc3nc4ccc(C)cc4s3)nc(-c3ccccc3)c2C#N)C(=O)C1
Outgoing: 75.4

Incoming: // lookup growth for O=C(O)/C(=C\c1ccc(Cl)cc1)c1ccc(Cl)cc1
Outgoing: 74.2

Incoming: GET /values?readout=growth&item= C=C1C(=O)O[C@H]2[C@H]1CC/C(COC(=O)N[C@H]1C[C@H](O[C@H]3C[C@](O)(C(=O)CO)Cc4c(O)c5c(c(O)c43)C(=O)c3c(OC)cccc3C5=O)O[C@@H](C)[C@H]1O)=C\CC[C@@]1(C)O[C@@H]21
Outgoing: 56.4
